System: CEM cells HIV-1 protection, formazan growth assay
Test: NCI AIDS Antiviral Assay
Details: measured here: growth of uninfected CEM cells
reported-metric: IC50

[[record]]
compound = "O=c1[nH]nc(Cc2ccccc2)n1Nc1ccccc1"
target = "CEM cells HIV-1 protection, formazan growth assay"
reported_metric = "IC50"
reported = "> 200 µM"

[[record]]
compound = "COc1cccc2sc(-n3c(C)nc4ccccc4c3=O)nc12"
target = "CEM cells HIV-1 protection, formazan growth assay"
reported_metric = "IC50"
reported = "> 200 µM"

[[record]]
compound = "O=C(O)CN1CCNCCN(CC(=O)O)CCNCC1"
target = "CEM cells HIV-1 protection, formazan growth assay"
reported_metric = "IC50"
reported = "3.63 µM"

[[record]]
compound = "O=C(Nc1cccc(O)c1)C(=O)C(C(=O)c1ccc(Cl)c(Cl)c1)C1OC(=O)c2ccccc21 (configuration not stated)"
target = "CEM cells HIV-1 protection, formazan growth assay"
reported_metric = "IC50"
reported = "64.6 µM"

[[record]]
compound = "CC(=O)NCS(=O)(=O)O"
target = "CEM cells HIV-1 protection, formazan growth assay"
reported_metric = "IC50"
reported = "> 200 µM"

[[record]]
compound = "COC(=O)C1=C(C)N(NC(=O)c2cccc(Cl)c2)C(C)(O)C12CCOC2=O (configuration not stated)"
target = "CEM cells HIV-1 protection, formazan growth assay"
reported_metric = "IC50"
reported = "275 µM"

[[record]]
compound = "CN1C(=S)NC2C(O)C(O)C(CO)OC21 (configuration not stated)"
target = "CEM cells HIV-1 protection, formazan growth assay"
reported_metric = "IC50"
reported = "> 1070 µM"

[[record]]
compound = "CCCCCCCCCC(=O)Oc1c2ccoc2cc2oc(=O)ccc12"
target = "CEM cells HIV-1 protection, formazan growth assay"
reported_metric = "IC50"
reported = "> 63.1 µM"

[[record]]
compound = "CC(=O)/C(=C/N1CC(=O)NC1=S)C(=O)Nc1ccccc1C"
target = "CEM cells HIV-1 protection, formazan growth assay"
reported_metric = "IC50"
reported = "> 200 µM"

[[record]]
compound = "c1ccc(C2C3=C(Nc4ncnn42)c2ccccc2C3)cc1 (configuration not stated)"
target = "CEM cells HIV-1 protection, formazan growth assay"
reported_metric = "IC50"
reported = "7.24 µM"

[[record]]
compound = "Nc1nc2c3nc(Nc4ccccc4)sc3nc(=O)n2c2sc(Nc3ccccc3)nc12"
target = "CEM cells HIV-1 protection, formazan growth assay"
reported_metric = "IC50"
reported = "> 5.89 µM"

[[record]]
compound = "O=c1oc2c3ccc4ccccc4c3n(CCCN3CCCCC3)c2c2ccccc12"
target = "CEM cells HIV-1 protection, formazan growth assay"
reported_metric = "IC50"
reported = "7.76 µM"

[[record]]
compound = "CC(C)=CCN1CCCn2c(=S)[nH]c3cccc(c32)C1"
target = "CEM cells HIV-1 protection, formazan growth assay"
reported_metric = "IC50"
reported = "> 200 µM"

[[record]]
compound = "Nc1nc2c(ncn2C2CCC(CO)OC2)c(=O)[nH]1 (configuration not stated)"
target = "CEM cells HIV-1 protection, formazan growth assay"
reported_metric = "IC50"
reported = "> 200 µM"

[[record]]
compound = "O=c1[nH]c2ccccc2c(=O)c2cc3ccccc3cc12"
target = "CEM cells HIV-1 protection, formazan growth assay"
reported_metric = "IC50"
reported = "> 200 µM"

[[record]]
compound = "O=S1OC[C@H](CCCl)O1 (some centres not stated)"
target = "CEM cells HIV-1 protection, formazan growth assay"
reported_metric = "IC50"
reported = "> 200 µM"

[[record]]
compound = "O=c1oc2cccc(O)c2c(O)c1Cc1ccccc1"
target = "CEM cells HIV-1 protection, formazan growth assay"
reported_metric = "IC50"
reported = "> 200 µM"

[[record]]
compound = "O=C1SC(c2ccccc2)(c2ccccc2)c2ccccc21"
target = "CEM cells HIV-1 protection, formazan growth assay"
reported_metric = "IC50"
reported = "> 4.79 µM"

[[record]]
compound = "CCOC(=O)/C=C/n1c2ccccc2c(=O)c2ccccc21"
target = "CEM cells HIV-1 protection, formazan growth assay"
reported_metric = "IC50"
reported = "> 9.33 µM"

[[record]]
compound = "O=C(/C=C(\\O)C(=O)O)/C=C(\\O)c1ccccc1"
target = "CEM cells HIV-1 protection, formazan growth assay"
reported_metric = "IC50"
reported = "> 200 µM"

[[record]]
compound = "CCOC(=O)c1nc2ccc(Cl)cc2c2c1CCO2"
target = "CEM cells HIV-1 protection, formazan growth assay"
reported_metric = "IC50"
reported = "> 5.25 µM"

[[record]]
compound = "NC(=S)N/N=C/c1c(O)c2cc(Cl)ccc2[nH]c1=O"
target = "CEM cells HIV-1 protection, formazan growth assay"
reported_metric = "IC50"
reported = "93.3 µM"

[[record]]
compound = "COc1ccc(CC2(O)C3CC4CCC2C4C3)cc1 (configuration not stated)"
target = "CEM cells HIV-1 protection, formazan growth assay"
reported_metric = "IC50"
reported = "87.1 µM"

[[record]]
compound = "O=C(O)/C=C/c1ccc([N+](=O)[O-])cc1"
target = "CEM cells HIV-1 protection, formazan growth assay"
reported_metric = "IC50"
reported = "> 97.7 µM"

[[record]]
compound = "CN(/N=C/c1ccc(Cl)c(Cl)c1)C1=NCCCCN1"
target = "CEM cells HIV-1 protection, formazan growth assay"
reported_metric = "IC50"
reported = "26.3 µM"

[[record]]
compound = "O=CN1CCN(C=O)C(O)C1O (configuration not stated)"
target = "CEM cells HIV-1 protection, formazan growth assay"
reported_metric = "IC50"
reported = "> 200 µM"

[[record]]
compound = "C=C1CC2(CCS(=O)(=O)c3ccccc32)OC1=O (configuration not stated)"
target = "CEM cells HIV-1 protection, formazan growth assay"
reported_metric = "IC50"
reported = "1.51 µM"

[[record]]
compound = "O=c1[nH]c(NCCCCCO)nc2nc[nH]c12"
target = "CEM cells HIV-1 protection, formazan growth assay"
reported_metric = "IC50"
reported = "> 200 µM"

[[record]]
compound = "CN=C1Nc2ccccc2C(=S)N2CSC[C@@H]12"
target = "CEM cells HIV-1 protection, formazan growth assay"
reported_metric = "IC50"
reported = "> 200 µM"

[[record]]
compound = "COC(=O)/C(=N\\NC(=O)c1ccccc1O)C(C#N)c1ccc(Cl)cc1 (configuration not stated)"
target = "CEM cells HIV-1 protection, formazan growth assay"
reported_metric = "IC50"
reported = "0.912 µM"

[[record]]
compound = "Cc1cccc(N2C(=O)C(=O)C(c3nc4ccccc4s3)/C(=N/NC(=S)NN)C2=O)c1C (configuration not stated)"
target = "CEM cells HIV-1 protection, formazan growth assay"
reported_metric = "IC50"
reported = "> 269 µM"

[[record]]
compound = "O=C1c2ccccc2-c2cc(S)c([N+](=O)[O-])cc21"
target = "CEM cells HIV-1 protection, formazan growth assay"
reported_metric = "IC50"
reported = "145 µM"

[[record]]
compound = "N#CC(C#N)=C(C#N)C#N"
target = "CEM cells HIV-1 protection, formazan growth assay"
reported_metric = "IC50"
reported = "> 200 µM"

[[record]]
compound = "Cc1ccc(NC(=O)CC(=O)N2N=C(N3CCCCC3)CC2c2ccccc2)cc1 (configuration not stated)"
target = "CEM cells HIV-1 protection, formazan growth assay"
reported_metric = "IC50"
reported = "> 200 µM"

[[record]]
compound = "COc1ccc(CCN(C)C(=O)CC(C#N)(c2ccccc2)c2ccc(OC)c(OC)c2)cc1OC (configuration not stated)"
target = "CEM cells HIV-1 protection, formazan growth assay"
reported_metric = "IC50"
reported = "95.5 µM"

[[record]]
compound = "O=[N+]([O-])c1ccc(N2N=C(c3c(O)ccc4ccccc34)CC2c2ccc(Cl)cc2)c([N+](=O)[O-])c1 (configuration not stated)"
target = "CEM cells HIV-1 protection, formazan growth assay"
reported_metric = "IC50"
reported = "16.6 µM"

[[record]]
compound = "O=C(/C=C/c1ccccc1Cl)c1ccccc1Cl"
target = "CEM cells HIV-1 protection, formazan growth assay"
reported_metric = "IC50"
reported = "> 7.24 µM"

[[record]]
compound = "Cc1cc2c(c(C=Nc3ccc(N(C)C)cc3)c1)OC1(C=C2)Oc2ccccc2C(=O)N1C (configuration not stated)"
target = "CEM cells HIV-1 protection, formazan growth assay"
reported_metric = "IC50"
reported = "13.2 µM"

[[record]]
compound = "Cc1ccccc1NC(=O)/C(=N\\NC(N)=S)C(C#N)c1ccccc1 (configuration not stated)"
target = "CEM cells HIV-1 protection, formazan growth assay"
reported_metric = "IC50"
reported = "> 186 µM"

[[record]]
compound = "CC(C)CC1N=C(OCc2ccccc2)OC1=O (configuration not stated)"
target = "CEM cells HIV-1 protection, formazan growth assay"
reported_metric = "IC50"
reported = "> 200 µM"

[[record]]
compound = "O=C1CSC(=O)N1"
target = "CEM cells HIV-1 protection, formazan growth assay"
reported_metric = "IC50"
reported = "> 2140 µM"

[[record]]
compound = "CCOC(=O)/C(=C/c1ccc2ccccc2c1)P(=O)(OCC)OCC"
target = "CEM cells HIV-1 protection, formazan growth assay"
reported_metric = "IC50"
reported = "24 µM"

[[record]]
compound = "CN(CCNC(=O)c1cn(C)c2c1ccc1ccccc12)CCNC(=O)c1cn(C)c2c1ccc1ccccc12"
target = "CEM cells HIV-1 protection, formazan growth assay"
reported_metric = "IC50"
reported = "3.09 µM"

[[record]]
compound = "Cc1cc2c(cc1C)NC1=C(N2)OC(c2ccccc2C)C1=O (configuration not stated)"
target = "CEM cells HIV-1 protection, formazan growth assay"
reported_metric = "IC50"
reported = "> 81.3 µM"

[[record]]
compound = "Cc1cccc(C(C)C)c1NC(=O)/C(Cc1c([N+](=O)[O-])cccc1[N+](=O)[O-])=N/NC(=O)CC#N"
target = "CEM cells HIV-1 protection, formazan growth assay"
reported_metric = "IC50"
reported = "> 145 µM"

[[record]]
compound = "CCOC(=O)/C=C/C(=O)O/C=C/[N+](=O)[O-]"
target = "CEM cells HIV-1 protection, formazan growth assay"
reported_metric = "IC50"
reported = "> 200 µM"

[[record]]
compound = "O=[N+]([O-])/C(C(Cl)=C(Cl)Cl)=C1\\NCCS1"
target = "CEM cells HIV-1 protection, formazan growth assay"
reported_metric = "IC50"
reported = "> 100 µM"

